- System: NCI-H23
- protocolNotes: NCI tumour cell line growth inhibition, 48 h
The source made the active and inactive calls. No stated cut-off is given here; in the data, active = GI50 up to about 1.1 µM and inactive = higher.
Give your call using only these classes: active, inactive

Example entries and their recorded answers appear below.
Cc1c([N+](=O)[O-])oc2ccc3ccccc3c12
inactive
CC1=NN(c2ccccc2)C(=O)C1=C1SCCCS1
inactive
CNc1cc2c(c3ccccc13)C(CCl)CN2C(=O)c1cc2cc(OC)c(OC)c(OC)c2[nH]1 (stereo not given)
active

Kindly review the next compound as well.
Query: Identify the outcome logged in this assay for the compound shown: Cc1cnc2sn(-c3ccc(Oc4ccccc4)cc3)c(=O)c2c1
Reply: inactive

###

- Test system: SNB-19
- protocolNotes: NCI tumour cell line growth inhibition, 48 h
Activity calls are given as the source filed them. Rule as the data show it: active = GI50 up to about 1.1 µM and inactive = higher.
Please state which outcome applies, choosing from 1 (active), -1 (inactive)

CCN1C(=O)C(=C/C=C/C=C2/N(C)c3ccccc3C2(C)C)C(=O)N(CC)C1=S
-1

Query: Any idea what this test logged for Cc1ccc(S(=O)(=O)NC(=O)NC(Cc2c[nH]c3ccccc23)C(=O)O)cc1 (stereo unspecified) ?
Reply: -1

Query: # outcome recorded in this test, key = CN(Cc1cc(C(C)(C)C)cc(Br)c1O)Cc1cc(C(C)(C)C)cc(Br)c1O
Reply: -1

Query: Recorded call for COC(CC1(CCNc2ccccc2)C(=O)N(COCC[Si](C)(C)C)c2ccccc21)OC (stereo unspecified) ?
Reply: -1

Query: // outcome(item) with item = O=S1(=O)NN=C(NCc2ccc(Cl)c(Cl)c2)c2ccccc21
Reply: -1

Query: recorded result category for O=C1C2CC=CCC2C(=O)N1n1c(Cc2ccccc2)n[nH]c1=O (stereo unspecified) in this test
Reply: -1

Query: Tell me the assay call for CC(C)CCC[C@@H](C)[C@H]1CCC2C3CC=C4C[C@@H](Oc5c6ccccc6nc6ccccc56)CCC4C3CCC21 (stereo partly specified) please.
Reply: -1

Query: Identify the outcome logged in this assay for the compound shown: NS(=O)(=O)c1nnc(NC(=O)c2cccc([N+](=O)[O-])c2)s1
Reply: -1

Query: Which outcome did this test record for the compound CCOC(=O)c1c2c(n(C)c1-c1ccccc1)C(=O)C(C)=CC2=O ?
Reply: -1

Query: Lab log entry: COC(=O)c1cc(C#N)[nH]c1-c1ccc(C)s1 — outcome as called in the assay?
Reply: -1

Query: Call for entry COc1cccc2c1C(=O)c1c(O)c3c(c(O)c1C2=O)C[C@@](O)(C(=O)CO)C[C@@H]3OC1CC(N2CCOCC2C#N)C(O)C(C)O1 (stereo partly specified) :
Reply: 1

Query: Assay outcome for O=[N+]([O-])C(=C1NCCN1)C(Cl)=C(Cl)Cl : what was it?
Reply: -1

Query: For this compound, state the assay outcome: COc1ccc(N)c(C(=O)CCNC(C)=O)c1
Reply: -1

Query: // param item: COc1c(C(=O)/C(=N/Nc2ccccc2)C(C)=O)c(O)c(OC)c2occc12 ; yields the recorded call
Reply: -1

Query: Returns: the outcome recorded for COc1ccccc1/N=C(\N)N/N=C/c1c[nH]c2ccccc12 in this assay.
Reply: -1

Query: Hi team, can someone confirm the assay call for N/C(=N\Nc1ccc(C(=O)O)cc1)c1cnccn1 ?
Reply: -1

Query: Please state the recorded outcome for this compound: CC(C)OP(=O)(OC(C)C)C(C(C)C)N(C)/C(N)=N\C1=NC(C(F)(F)F)(C(F)(F)F)N=C(C(C(F)(F)F)C(F)(F)F)O1 (stereo unspecified)
Reply: -1
